# procedure_text: Cell Viability - LYMP1-002 - Assay at 40 hr (AID 994); further: nearly all actives have a fitted effect of over 60% in size
# experimental_setup: LYMP1-002 lymphoblastoid cell viability; series mostly up to 92.2 µM
Records with an inconclusive call do not appear. Active and inactive are the calls of the source. The call rests on the fitted dose curve; in most records, active means well fitted cell-killing curve with a large enough effect; inconclusive means small, poorly fitted or top-dose-only effect; inactive means flat fitted curve, though single readings scatter.
Please answer using one outcome listed in active, inactive

Problem: For `O=C(O)c1cc(=O)[nH]c(=O)[nH]1` , which call appears in the assay record?
Result: inactive

Problem: // return assay outcome for `CC1=NN(c2ccccc2)C(=O)C1`
Result: inactive

Problem: State the result this test recorded for `CN(C)c1ccc(C(=C2C=CC(=[N+](C)C)C=C2)c2ccc(N(C)C)cc2)cc1` .
Result: active

Problem: Any idea what this test logged for `Cc1cc(NS(=O)(=O)c2ccc(N)cc2)no1` ?
Result: inactive

---

# Tested on: CRL-7250
# procedure_text: Cytotoxic Profiling of Annotated Libraries Using Quantitative High-Throughput Screening (AID 1296008); further: nearly all actives have a fitted effect of over 60% in size
# experimental_setup: Five cell lines viability, CellTiter-Glo ATP luminescence, 48-72 h
Records with an inconclusive call do not appear. The source made the active and inactive calls. Calls follow the shape of the dose curve; as a rule, active = well fitted inhibition curve with a large enough effect; inconclusive = small, poorly fitted or top-dose-only effect; inactive = flat fitted curve, though single readings scatter.
In this exercise, the only acceptable responses are 1.0 = active, 0.0 = inactive

Problem: What outcome does the record of this test show for COc1ccccc1OCC(O)COC(N)=O (stereo not given) ?
Result: 0.0

Problem: So what was the verdict on `COc1cc2nc(N3CCCN(C)CC3)nc(NC3CCN(Cc4ccccc4)CC3)c2cc1OC` in this test?
Result: 1.0

Problem: I would be grateful if you could indicate the recorded call for `Cc1cccc(Nc2ccncc2S(=O)(=O)NC(=O)NC(C)C)c1` .
Result: 0.0

Problem: Returns: the outcome recorded for `COC(c1ccccc1)(c1ccccc1)[C@H](Oc1nc(C)cc(C)n1)C(=O)O` in this assay.
Result: 0.0

Problem: Query: recorded result category for `CNS(=O)(=O)Cc1ccc2[nH]cc(CCN(C)C)c2c1` in this test
Result: 0.0

Problem: // outcome(item) with item = CCN1CCCC1CNC(=O)c1cc(S(N)(=O)=O)ccc1OC (stereo not given)
Result: 0.0

Problem: What did the test return for `CC(=O)[C@H]1CC[C@H]2[C@@H]3CC=C4C[C@@H](O)CC[C@]4(C)[C@H]3CC[C@]12C` ?
Result: 0.0

Problem: Which result was noted for this molecule in the test: `CC(C)Cn1cnc2c(N)nc3ccccc3c21`
Result: 0.0

Problem: Hello, I am checking results. What call was entered for `O=S(=O)(c1cccc2cnccc12)N1CCCNCC1` ?
Result: 0.0

Problem: Status in this test for `CCC(=O)O[C@]1(C(=O)SCF)[C@H](C)C[C@H]2[C@@H]3C[C@H](F)C4=CC(=O)C=C[C@]4(C)[C@@]3(F)[C@@H](O)C[C@@]21C` ?
Result: 0.0

---

# procedure_text: Cell Viability - LYMP2-021 (AID 974);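 further: compound exposure lasts 24 hours at 37 °C; nearly all actives have a fitted effect of over 55% in size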
# experimental_setup: LYMP2-021 lymphoblastoid cells viability; series mostly up to 92.2 µM
Results filed as inconclusive are left out. Active and inactive are the calls of the source. Calls come from the whole dose curve; as a rule, active = well fitted cell-killing curve with a large enough effect; inconclusive = small, poorly fitted or top-dose-only effect; inactive = flat fitted curve, though single readings scatter.
property_label: outcome

>>> endpoint_value("Cc1nnc(NS(=O)(=O)c2ccc(N)cc2)s1")
"inactive"
>>> endpoint_value("O=C(N[C@H](CO)[C@H](O)c1ccc([N+](=O)[O-])cc1)C(Cl)Cl")
"inactive"
>>> endpoint_value("Cc1noc(NS(=O)(=O)c2ccc(N)cc2)c1C")
"inactive"
>>> endpoint_value("CC1=NN(c2ccccc2)C(=O)C1")
"inactive"

Then there is this compound:
Problem: Look at this compound and give its reported outcome. `CCc1cc(C(N)=S)ccn1`
Result: inactive

---

# procedure_text: qHTS of pediatric cancer cell lines to identify multiple opportunities for drug repurposing: Confirmatory screen for MG 63 (6-TG R) cells (AID 1347119); further: nearly all actives have a fitted effect of over 55% in size
# experimental_setup: MG-63 (6-TG resistant) osteosarcoma viability; series mostly up to 45.9 µM
Inconclusive results are not listed. Calls of active or inactive are those of the source. Calls follow the shape of the dose curve; as a rule, active = well fitted cell-killing curve with a large enough effect; inconclusive = small, poorly fitted or top-dose-only effect, or effect the other way; inactive = no such curve, though single readings can be large or run the other way.
Would you mind answering with one of these outcomes? active, inactive

Problem: Dear all, I need the recorded test outcome for `CC(C)(C#N)c1cc(Cn2cncn2)cc(C(C)(C)C#N)c1` , thank you.
Result: inactive

Problem: Could you please tell me the result logged for `O=NN(CCCl)C(=O)NC1CCCCC1` in this assay?
Result: inactive

Problem: Recorded call for `Cn1nnc2c(C(N)=O)ncn2c1=O` ?
Result: inactive

Problem: Tell me the recorded outcome of this test for `Nc1nc(N)nc(-c2cc(Cl)ccc2Cl)n1` .
Result: inactive

Problem: So what was the verdict on CC(C)NCC(O)c1ccc(NS(C)(=O)=O)cc1 (configuration not stated) in this test?
Result: inactive

Problem: I'd appreciate the recorded outcome for `COc1cc2nc(N3CCCN(C)CC3)nc(NC3CCN(Cc4ccccc4)CC3)c2cc1OC` from this test.
Result: inactive

Problem: Returns: the outcome recorded for `Nc1[nH]c(=O)ncc1F` in this assay.
Result: inactive

Problem: Please state the recorded outcome for this compound: `Nc1nc(=S)c2[nH]cnc2[nH]1`
Result: inactive

Problem: What was the test verdict on CC1CC2C3CCC4=CC(=O)C=C[C@]4(C)[C@@]3(F)[C@@H](O)C[C@]2(C)[C@@]1(O)C(=O)CO (some centres not stated) ?
Result: inactive

Problem: Dear all, I need the recorded test outcome for `O=S(=O)(O)CCS` , thank you.
Result: active

Problem: Which outcome was assigned to Nc1nc(N)c2nc(CNc3ccc(C(=O)NC(CCC(=O)O)C(=O)O)cc3)cnc2n1 (configuration not stated) in this test?
Result: inactive

Problem: Write down the call the test reported for this compound. Item: `CN(C)c1ccc(C(=C2C=CC(=[N+](C)C)C=C2)c2ccc(N(C)C)cc2)cc1`
Result: active

---

# procedure_text: Quantitative High-Throughput drug screen in 47 multiple myeloma cell lines against the NCATS MIPE library collection: RPMI8226_ATCC cell viability assay (AID 1919871); further: nearly all actives have a fitted effect of over 30% in size
# experimental_setup: RPMI8226 myeloma viability, CellTiter-Glo ATP luminescence, 48 h; series mostly up to 45.8 µM
Inconclusive results are not listed. Active and inactive are the calls of the source. Calls follow the shape of the dose curve; as a rule, active = well fitted cell-killing curve with a large enough effect; inconclusive = small, poorly fitted or top-dose-only effect, or effect the other way; inactive = no such curve, though single readings can be large or run the other way.
The categories you may choose from are t for active, f for inactive

Problem: Write down the call the test reported for this compound. Item: `CC1(C)[C@H](C(=O)O)N2C(=O)C[C@H]2S1(=O)=O`
Result: f

Problem: Entry C1CCC(C(CC2CCCCN2)C2CCCCC2)CC1 (configuration not stated) : call = ?
Result: t

Problem: Short answer needed: outcome of this test for `NC1(c2ccc(-c3nc4ccn5c(=O)[nH]nc5c4cc3-c3ccccc3)cc2)CCC1` ?
Result: t

Problem: Tell me the assay call for `COC(c1ccccc1)(c1ccccc1)[C@H](Oc1nc(C)cc(C)n1)C(=O)O` please.
Result: f

Problem: Answer briefly: the call reported for `Cc1cc(NS(=O)(=O)c2ccc(N)cc2)no1` in this assay.
Result: f

Problem: Recorded call for O=C(O)C1CCCN(CCC=C(c2ccccc2)c2ccccc2)C1 (configuration not stated) ?
Result: f

Problem: Outcome? `O=S(=O)(O)CCS`
Result: f

Problem: Which outcome did this test record for the compound `CN(C)CCc1c[nH]c2ccc(C[C@H]3COC(=O)N3)cc12` ?
Result: f

Problem: Look up the recorded call for CC(N)C12CC3CC(CC(C3)C1)C2 (configuration not stated) in this test.
Result: f

Problem: What is the recorded call for this compound in the test? `C[C@@H]1CN(c2c(F)c(N)c3c(=O)c(C(=O)O)cn(C4CC4)c3c2F)C[C@H](C)N1`
Result: f

Problem: Identify the outcome logged in this assay for the compound shown: `CCOC(=O)[C@H](CCc1ccccc1)N[C@H]1CS[C@H](c2cccs2)CN(CC(=O)O)C1=O`
Result: t

Problem: Dear all, I need the recorded test outcome for `Clc1ccccc1CN1CCc2sccc2C1` , thank you.
Result: f

---

# Tested on: Zika virus NS2B-NS3 protease (unlinked complex)
# procedure_text: Primary screen GU Rhodamine qHTS for Zika virus inhibitors: Unlinked NS2B-NS3 protease assay (AID 1347159); further: nearly all actives have a fitted effect of over 60% in size
# experimental_setup: Recombinant ZIKV NS2B-NS3 protease, Rhodamine110 substrate fluorescence; series mostly up to 107 µM
Results filed as inconclusive are left out. Active and inactive are the calls of the source. Calls follow the shape of the dose curve; as a rule, active = well fitted inhibition curve with a large enough effect; inconclusive = small, poorly fitted or top-dose-only effect; inactive = no such curve, though single readings can be large or run the other way.
Your response should consist of one outcome taken from active, inactive

Problem: Write down the call the test reported for this compound. Item: `Nc1nc(F)nc2c1ncn2[C@@H]1O[C@H](CO)[C@@H](O)[C@@H]1O`
Result: inactive

Problem: Recorded test call requested for O=C(NCC1CN(c2ccc(N3CCOCC3=O)cc2)C(=O)O1)c1ccc(Cl)s1 (centres undefined)
Result: inactive

Problem: So what was the verdict on `CCCCc1oc2ccc(NS(C)(=O)=O)cc2c1C(=O)c1ccc(OCCCN(CCCC)CCCC)cc1` in this test?
Result: inactive

Problem: Which result was noted for this compound in the test: `CNC(=O)c1cc(Oc2ccc(NC(=O)Nc3ccc(Cl)c(C(F)(F)F)c3)cc2)ccn1`
Result: active

Problem: Look up the recorded call for `CC[C@H](C)C(=O)O[C@H]1C[C@@H](C)C=C2C=C[C@H](C)[C@H](CC[C@@H]3C[C@@H](O)CC(=O)O3)[C@H]21` in this test.
Result: inactive

Problem: Per the assay record, what outcome was assigned to `CNS(=O)(=O)CCc1ccc2[nH]cc(C3CCN(C)CC3)c2c1` ?
Result: inactive

Problem: Assay result, entry `NC1(c2ccc(-c3nc4ccn5c(=O)[nH]nc5c4cc3-c3ccccc3)cc2)CCC1` — outcome?
Result: inactive

Problem: What did the test return for `COc1cc2ncnc(Nc3cccc(Cl)c3)c2cc1OC` ?
Result: inactive

Problem: Record request — test call for `COc1cc2c(Nc3ccc(Br)cc3F)ncnc2cc1OCC1CCN(C)CC1`
Result: inactive
